# target under test: T1, ZIKV (prM80E) with a C-terminal myc-myc-hexahistidine tag (Zika virus, UniProt A0A024B7W1 104-694)
# T1 construct: also called ZIKV (prM80E)-mmH; ZIKV-mmH
# method summary: SPR, mAb captured, 37C
Below: a set of entries, each annotated with reported t½.
Field format: number, assumed min, no unit text.

Recorded results for 2 binders are shown here.
H4H25592P (antibody, V domains shown) VH: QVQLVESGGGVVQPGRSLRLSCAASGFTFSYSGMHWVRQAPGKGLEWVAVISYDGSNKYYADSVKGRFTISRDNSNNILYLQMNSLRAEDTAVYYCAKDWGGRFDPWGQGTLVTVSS VL: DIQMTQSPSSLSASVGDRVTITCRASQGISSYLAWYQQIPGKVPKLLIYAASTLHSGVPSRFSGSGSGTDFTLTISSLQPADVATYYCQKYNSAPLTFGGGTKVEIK : 7
H4H25587P (antibody, V domains shown) VH: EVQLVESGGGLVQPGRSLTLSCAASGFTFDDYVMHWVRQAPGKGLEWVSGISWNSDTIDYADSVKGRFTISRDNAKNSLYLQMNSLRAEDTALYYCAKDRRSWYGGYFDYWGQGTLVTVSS VL: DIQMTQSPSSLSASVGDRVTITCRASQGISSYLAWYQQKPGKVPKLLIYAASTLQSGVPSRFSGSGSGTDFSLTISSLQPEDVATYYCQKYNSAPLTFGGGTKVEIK : 0.8

t½ recorded for this binder, H4H25630P (antibody, V domains shown) VH: QVQLVQSGAEVKRPGASVKVSCKASDYTFTDYGISWVRQAPGQGLEWMGWFNTYNGNTNYAQKFQGRITMTTDTSTSTAYMELRSLRSDDTAIYYCARDWGLHYFENWGQGTLVTVSS VL: EIVLTQSPGTLSLSPGERATLSCRASQSVRNSYLAWYQQKPGQAPRLLIYGASSRDTGIPDRFSGSGSGTDFTLTISRLEPEDFAVYYCQQYGRSPWTFGQGTKVEIK , is 5.1

These data points were gathered from patent US20180016324A1.
